Exercise: for every item that follows, state its recorded pIC50.
Biological target: T1, TNF receptor 1 Fc fusion protein (R&D Systems) (human, UniProt P19438 30-211, limits assumed)
T1 construct: also called recombinant TNF receptor 1 (p55); not shown: Fc part of the bought fusion protein, captured by an anti-human Fc antibody
T1 sequence (looked up): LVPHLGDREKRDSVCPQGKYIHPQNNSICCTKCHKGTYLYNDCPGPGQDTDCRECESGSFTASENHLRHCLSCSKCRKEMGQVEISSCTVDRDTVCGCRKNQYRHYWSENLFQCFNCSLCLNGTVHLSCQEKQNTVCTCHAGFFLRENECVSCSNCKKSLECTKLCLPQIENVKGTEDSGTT
Assay: DOM1 receptor binding assay (RBA): dAb titrated against TNF binding to TNF receptor 1
Numbers only, as −log10 of the molar value.

Look up pIC50 for the entries below, preserving their order.
1. TAR2-10-27 Gln112cys blocked (other, Cys112 blocked with N-ethylmaleimide, For numbering and entry offset see m28) VH: ASTEVQLLESGGGLVQPGGSLRLSCAASGFTFEWYWMGWVRQAPGKGLEWVSAISGSGGSTYYADSVKGRFTISRDNSKNTLYLQMNSLRAEDAAVYYCAKVKLGGGPNFGYRGCGTLVTVSS
2. TAR2-10-27 Leu115cys 30K MAL PEG (other, 30K MAL-PEG on Cys115, For numbering and entry offset see m28) VH: ASTEVQLLESGGGLVQPGGSLRLSCAASGFTFEWYWMGWVRQAPGKGLEWVSAISGSGGSTYYADSVKGRFTISRDNSKNTLYLQMNSLRAEDAAVYYCAKVKLGGGPNFGYRGQGTCVTVSS

Result string:
1. 8.70
2. 8.00
